Where do the numbers come from? From the RNAGym collection of RNA variant scans (doi:10.7554/elife.80360).

B1: CPEB3 Ribozyme (parent)
chain: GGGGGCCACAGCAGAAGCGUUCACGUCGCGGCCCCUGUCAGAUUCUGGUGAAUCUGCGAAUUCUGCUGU

variants of: B1; experiment: self-cleavage, relative activity (ratio to wild type); higher = more cleavage; co-transcriptional
measured.attribute: self-cleavage
Respond numerically, and do not add a unit to the figure.

Known results for variants:
change="G4U G14U" readout_number=0.241
change="C24G C39U" readout_number=0.217
change="G30U C34G" readout_number=0.193
change="U36C U49C" readout_number=0.863
change="U55C G68U" readout_number=0.908
change="G5C G37U" readout_number=0.179
change="U62C U64A" readout_number=0.507
change="G48A A52U" readout_number=0.996
change="A15G C39A" readout_number=0.833
change="C22G C63U" readout_number=0.123

Request the reported self-cleavage associated with A40C U49G 0.658

State the recorded self-cleavage for this entry: C18A C39G 0.142

Quick one: self-cleavage for G30U C45G ? 0.354

Fill in: self-cleavage of G50U U61G is ___ 0.857

Name the recorded self-cleavage for "C63A" . 0.919

self-cleavage lookup needed for G14A A15C , thanks. 0.305
